test system: FGFR3 enzyme; assay: FGFR Enzymatic Assay (FRET peptide phosphorylation), FGFR3; format: biochemical; details: IC50 ratio showing FGFR3 selectivity; Table 2A, pre-incubated for 4 hours
MEASURED_QUANTITY: FGFR1/FGFR3

stdin: What value of FGFR1/FGFR3 on FGFR3 enzyme does COc1cc(OC)c(F)c(N2Cc3cnc(-c4cn(C)nc4C)cc3N(CC3CCOCC3)C2=O)c1F [Example 37] have?
stdout: >1

stdin: Entry COc1cc(OC)c(F)c(N2Cc3cnc(-c4cnn(C5CCN(S(C)(=O)=O)C5)c4)cc3C3(CC3)C2=O)c1F (stereo not drawn) [Example 147] , system FGFR3 enzyme: what FGFR1/FGFR3 was measured?
stdout: >10

stdin: Notebook: pull reported FGFR1/FGFR3 for FGFR3 enzyme, entry COc1cc(OC)c(F)c(N2Cc3cnc(-c4cn(C)nc4C)cc3N(Cc3ccnc(C)c3)C2=O)c1F [Example 68]
stdout: >5

stdin: # get_value(readout= FGFR1/FGFR3, system= FGFR3 enzyme) for CCN1C(=O)N(c2c(F)c(OC)cc(OC)c2F)Cc2cnc(-c3ccc(C(C)(C)C#N)nc3)cc21 [Example 26]
stdout: >5

stdin: Record lookup: for FGFR3 enzyme, what FGFR1/FGFR3 belongs to COc1cc(OC)c(F)c(N2Cc3cnc(-c4csc(N(C)C)n4)cc3C3(CC3)C2=O)c1F [Example 160] ?
stdout: >5

stdin: State its FGFR1/FGFR3 on FGFR3 enzyme: COc1cc(OC)c(F)c(N2Cc3cnc(-c4cn(CCC5CCNCC5)nc4C)cc3C3(CC3)C2=O)c1F [Example 165]
stdout: >3

stdin: Under FGFR3 enzyme: FGFR1/FGFR3 value of COc1cc(OC)c(F)c(N2Cc3cnc(-c4cn(C)nc4C)cc3N(c3cnccn3)C2=O)c1F [Example 70] ?
stdout: >5

stdin: Find the measured FGFR1/FGFR3: item CCN1C(=O)N(c2c(F)c(OC)cc(OC)c2F)Cc2cnc(-c3ccccc3)cc21 [Example 22] , target or system FGFR3 enzyme.
stdout: >5

stdin: API: value(readout= FGFR1/FGFR3, system= FGFR3 enzyme, query= COc1cc(OC)c(F)c(N2Cc3cnc(-c4cn(C)nc4C)cc3N(C(C)C)C2=O)c1F [Example 90] )
stdout: >5

stdin: Please state recorded FGFR1/FGFR3 (tested on FGFR3 enzyme) of COc1cc(OC)c(F)c(N2Cc3cnc(-c4cn(C)nc4C)cc3N(CC3CC3)C2=O)c1F [Example 29]
stdout: >1

stdin: What measured FGFR1/FGFR3 is associated with COc1cc(OC)c(F)c(N2Cc3cnc(-c4cn(C)nc4C)cc3N(Cc3csc(C)n3)C2=O)c1F [Example 95] on FGFR3 enzyme?
stdout: >5

stdin: Please provide the recorded FGFR1/FGFR3 for COc1cc(OC)c(F)c(N2Cc3cnc(-c4cn(C)nc4C)cc3N(Cc3ccc4c(c3)OCCO4)C2=O)c1F [Example 38] , tested on FGFR3 enzyme.
stdout: >5

stdin: Checklist item: FGFR1/FGFR3 tested on FGFR3 enzyme, entry COc1cc(OC)c(F)c(N2Cc3cnc(-c4cn(C)nc4C)cc3N(c3cccc(-c4cnnn4C)c3)C2=O)c1F [Example 89] , value?
stdout: >5

stdin: For the record CCN1C(=O)N(c2c(F)c(OC)cc(OC)c2F)Cc2cnc(-c3ccc(CC#N)cc3)cc21 [Example 180] , what value of FGFR1/FGFR3 is listed for FGFR3 enzyme?
stdout: >5

stdin: // fetch FGFR3 enzyme FGFR1/FGFR3 for COc1cc(OC)c(F)c(N2Cc3cnc(-c4ccc(C#N)nc4)cc3C3(CC3)C2=O)c1F [Example 20]
stdout: >5
